test system: Vero C1008; test: AUC (cytotoxicity %) of compound against Vero E6 cells by MTT assay.; assay type: toxicity, cell-based; details: chlorocebus sabaeus
Strictly below 200 in AUC cytotoxicity: MET. Otherwise: NOT MET.

Molecule: CC(C)CC(=O)N[C@H](C(=O)N[C@H](C(=O)N[C@@H](CC(C)C)[C@@H](O)CC(=O)N[C@@H](C)C(=O)N[C@@H](CC(C)C)[C@@H](O)CC(=O)O)C(C)C)C(C)C
Label class: NOT MET
--
Molecule: CCCC(CCC)C(=O)O
Label class: NOT MET
--
Molecule: COc1ccc2c(c1)[C@]13CCCC[C@@H]1[C@H](C2)N(C)CC3
Label class: NOT MET
--
Molecule: CCNC(=O)c1noc(-c2cc(C(C)C)c(O)cc2O)c1-c1ccc(CN2CCOCC2)cc1
Label class: MET
--
Molecule: CCN(CCO)CCCC(C)Nc1ccnc2cc(Cl)ccc12 (configuration not stated) [HYDROXYCHLOROQUINE]
Label class: NOT MET
--
Molecule: N#CC[C@H](C1CCCC1)n1cc(-c2ncnc3[nH]ccc23)cn1
Label class: NOT MET
--
Molecule: Cc1cc(Nc2cc(N)ncn2)c(=O)n2c1C(=O)NC21CCCCC1
Label class: NOT MET
--
Molecule: COc1cc(OC)c2c(=O)[nH]c(-c3cc(C)c(OCCO)c(C)c3)nc2c1
Label class: NOT MET
--
Molecule: C[C@@H]1CN(CCCn2c3ccccc3c3ccccc32)C[C@H](C)N1
Label class: NOT MET
--
Molecule: CN(C)C(=O)COC(=O)Cc1ccc(OC(=O)c2ccc(NC(=N)N)cc2)cc1
Label class: NOT MET
--
Molecule: CC(C)n1nc(-c2ccc3oc(N)nc3c2)c2c(N)ncnc21
Label class: MET
--
Molecule: C[C@@H](C1CCCCC1)n1c(-c2cc3c(cc2Br)OCO3)nc2cc(C(=O)Nc3ccc(C#N)cc3)ccc21
Label class: NOT MET

====

biological target: Muscarinic acetylcholine receptor M1 (Homo sapiens)
Sequence (P11229 whole entry): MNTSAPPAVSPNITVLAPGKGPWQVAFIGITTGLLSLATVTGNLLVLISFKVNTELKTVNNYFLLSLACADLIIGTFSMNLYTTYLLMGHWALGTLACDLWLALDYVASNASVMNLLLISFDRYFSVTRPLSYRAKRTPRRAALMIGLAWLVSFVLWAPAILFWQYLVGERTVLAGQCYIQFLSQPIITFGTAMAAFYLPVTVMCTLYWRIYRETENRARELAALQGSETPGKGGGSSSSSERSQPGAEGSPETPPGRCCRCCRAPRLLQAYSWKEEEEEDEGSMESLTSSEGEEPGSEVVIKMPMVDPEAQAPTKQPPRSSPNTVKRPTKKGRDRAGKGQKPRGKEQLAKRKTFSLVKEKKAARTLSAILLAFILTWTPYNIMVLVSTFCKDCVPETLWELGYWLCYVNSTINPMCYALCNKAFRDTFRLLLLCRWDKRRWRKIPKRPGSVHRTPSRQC
pKi: −log10 of the molar value.
Measure name: pKi

Compound structure string: CCCN1CCC=C(c2cc(-c3ccc(C)cc3)no2)C1
Result: < 4.50

====

test: Cytotoxicity of compound against Vero E6 cells by MTT assay.; details: chlorocebus sabaeus, Vero E6 cells
Active and inactive are the calls of the source. The rule behind the calls is not given here.
Measure name: CC50

Molecule: Cc1ncsc1-c1ccc(CNC(=O)[C@@H]2C[C@@H](O)CN2C(=O)[C@@H](NC(=O)COCCOCCOCCNC(=O)C[C@@H]2N=C(c3ccc(Cl)cc3)c3c(sc(C)c3C)-n3c(C)nnc32)C(C)(C)C)cc1
Result: 300 nM
--
Molecule: Cc1cc2c(s1)Nc1ccccc1N=C2N1CCN(C)CC1 [OLANZAPINE]
Result: ~2880 nM (inactive)
--
Molecule: CCNC(=O)c1noc(-c2cc(C(C)C)c(O)cc2O)c1-c1ccc(CN2CCOCC2)cc1 [LUMINESPIB]
Result: ~67.6 nM
--
Molecule: Cc1noc2c1-c1ccccc1C(c1ccc(Cl)cc1)=N[C@H]2CC(N)=O [PELABRESIB]
Result: ~42.7 nM (inactive)

====

test: Cytotoxicity of compound against Vero E6 cells by MTT assay.; conditions: chlorocebus sabaeus, Vero E6 cells
Active and inactive are the calls of the source. No cut-off for these calls is given here.
Measure name: CC50

Compound: C[C@@H](C1CCCCC1)n1c(-c2cc3c(cc2Br)OCO3)nc2cc(C(=O)Nc3ccc(C#N)cc3)ccc21
Measure name: CC50
Result: ~0.102 µM (inactive)
--
Compound: CCc1ccc(CCOc2ccc(CC3SC(=O)NC3=O)cc2)nc1 (stereo not given) [PIOGLITAZONE]
Measure name: CC50
Result: ~3.63 µM (inactive)
--
Compound: Clc1ccc(C(OCCN2CCCCC2)c2ccccc2)cc1 (stereo not given) [CLOPERASTINE]
Measure name: CC50
Result: ~0.661 µM (active)
--
Compound: NCCCC[C@H](N[C@@H](CCc1ccccc1)C(=O)O)C(=O)N1CCC[C@H]1C(=O)O [LISINOPRIL ANHYDROUS]
Measure name: CC50
Result: ~8.32 µM (inactive)
--
Compound: Cc1cc(OCCN2CCOCC2)nn1-c1ccc2ccccc2c1
Measure name: CC50
Result: ~7.62 µM (inactive)
